Tested on: AGS
MEASUREMENT_DESCRIPTION: Cytotoxicity in human AGS cells assessed as reduction in cell viability incubated for 24 hrs by MTT assay
Format: functional, cell-based
METRIC: pIC50
Note: pIC50 values are expressed as the negative base-10 logarithm of concentration in M.

## Input Supply measured pIC50 of CC(=O)O[C@H]1CC[C@]2(C)[C@H]3CC=C4[C@@H]5[C@@H](C)[C@H](C)CC[C@]5(C(=O)NCCCCN)CC[C@@]4(C)[C@]3(C)CC[C@H]2C1(C)C in your reply.
## Output 4.85

## Input Supply measured pIC50 of CC(=O)O[C@H]1CC[C@]2(C)[C@H]3CC=C4[C@@H]5[C@@H](C)[C@H](C)CC[C@]5(C(=O)NCCN)CC[C@@]4(C)[C@]3(C)CC[C@H]2C1(C)C in your reply.
## Output 4.84

## Input Supply measured pIC50 of C[C@H]1[C@H](C)CC[C@]2(C(=O)O)CC[C@]3(C)C(=CC[C@@H]4[C@@]5(C)CC[C@H](O)C(C)(C)[C@@H]5CC[C@]43C)[C@H]12 in your reply.
## Output 4.36

====

Tested on: MCF7
MEASUREMENT_DESCRIPTION: Cytotoxicity in human MCF7 cells assessed as reduction in cell viability incubated for 24 hrs by MTT assay
Type: functional, cell-based
TEST_PARAMETERS: MCF7, 24 h
Listed molecules paired with reported IC50
Give the number; µM is assumed, so skip it.

TEST_SMILES: CC1(C)[C@@H](O)CC[C@]2(C)[C@H]3C(=O)C=C4[C@H]5C[C@@](C)(C(=O)O)CC[C@]5(C)CC[C@@]4(C)[C@]3(C)CC[C@@H]12
SUBJECT_OF_TEST: MCF7
IC50 [µM]: 75.7

## Input Supply measured IC50 of CCOC(=O)/C=C/c1cccc(OC(=O)[C@@]2(C)CC[C@]3(C)CC[C@]4(C)C(=CC(=O)[C@@H]5[C@@]6(C)CC[C@H](OC(=O)[C@@H](N)CCSC)C(C)(C)[C@@H]6CC[C@]54C)[C@H]3C2)c1 in your reply.
## Output 5.79

## Input Supply measured IC50 of CCOC(=O)/C=C/c1ccc(OC(=O)[C@@]2(C)CC[C@]3(C)CC[C@]4(C)C(=CC(=O)[C@@H]5[C@@]6(C)CC[C@H](OC(=O)[C@@H](N)CCSC)C(C)(C)[C@@H]6CC[C@]54C)[C@H]3C2)c(OC)c1 in your reply.
## Output 8.62

====

System: CT26
MEASUREMENT_DESCRIPTION: Cytotoxicity in mouse CT26 cells assessed as reduction in cell viability incubated for 96 hrs by SRB assay
Format: functional, cell-based
TEST_PARAMETERS: CT26, 96 h
Listed compounds paired with reported pIC50
Note: pIC50 values are expressed as the negative base-10 logarithm of concentration in M.

Answered cases to consult:
COMPOUND: CC1(C)c2n[nH]cc2C[C@]2(C)[C@H]3C(=O)C=C4[C@H]5C[C@@](C)(C(=O)OCc6ccccc6)CC[C@]5(C)CC[C@@]4(C)[C@]3(C)CC[C@@H]12
OBSERVED_MEASUREMENT: 4.70

COMPOUND: COC(=O)[C@@]1(C)CC[C@]2(C)CC[C@]3(C)C(=CC(=O)[C@@H]4[C@@]5(C)Cc6cn(C(=O)CCC7CCNCC7)nc6C(C)(C)[C@@H]5CC[C@]43C)[C@H]2C1
OBSERVED_MEASUREMENT: 4.89

COMPOUND: COC(=O)[C@@]1(C)CC[C@]2(C)CC[C@]3(C)C(=CC(=O)[C@@H]4[C@@]5(C)Cc6cn(C(=O)C7CCCNC7)nc6C(C)(C)[C@@H]5CC[C@]43C)[C@H]2C1 (some centres not stated)
OBSERVED_MEASUREMENT: 4.62

COMPOUND: COC(=O)[C@@]1(C)CC[C@]2(C)CC[C@]3(C)C(=CC(=O)[C@@H]4[C@@]5(C)Cc6cn(C(=O)CC7CCNCC7)nc6C(C)(C)[C@@H]5CC[C@]43C)[C@H]2C1
OBSERVED_MEASUREMENT: 5.01

COMPOUND: COC(=O)[C@@]1(C)CC[C@]2(C)CC[C@]3(C)C(=CC(=O)[C@@H]4[C@@]5(C)Cc6c[nH]nc6C(C)(C)[C@@H]5CC[C@]43C)[C@H]2C1
OBSERVED_MEASUREMENT: 4.58

## Input Look up and report pIC50, with CT26 as system, for COC(=O)[C@@]1(C)CC[C@]2(C)CC[C@]3(C)C(=CC(=O)[C@@H]4[C@@]5(C)Cc6c(n[nH]c6C(F)(F)F)C(C)(C)[C@@H]5CC[C@]43C)[C@H]2C1
## Output 4.66

## Input Look up and report pIC50, with CT26 as system, for COC(=O)[C@@]1(C)CC[C@]2(C)CC[C@]3(C)C(=CC(=O)[C@@H]4[C@@]5(C)Cc6cn(C(=O)C7CCNCC7)nc6C(C)(C)[C@@H]5CC[C@]43C)[C@H]2C1
## Output 4.67

====

System: HUVEC
MEASUREMENT_DESCRIPTION: Cytotoxicity in HUVEC cells assessed as reduction in cell viability incubated for 48 hrs by MTT assay
Format: cell-based
TEST_PARAMETERS: Homo sapiens
pIC50: −log10 of the molar value.
Listed molecules paired with reported pIC50

Answered cases to consult:
MOLECULE: CCOP(=O)(OCC)C(NC(=O)[C@]12CC[C@@H](C)[C@H](C)[C@H]1C1=CC[C@@H]3[C@@]4(C)C[C@@H](OC(C)=O)[C@H](OC(C)=O)[C@@](C)(COC(C)=O)[C@@H]4CC[C@@]3(C)[C@]1(C)CC2)c1cccc2ccccc12 (stereo partly specified)
pIC50: < 4.00
//
MOLECULE: CCOP(=O)(OCC)C(NC(=O)[C@]12CC[C@@H](C)[C@H](C)[C@H]1C1=CC[C@@H]3[C@@]4(C)C[C@@H](OC(C)=O)[C@H](OC(C)=O)[C@@](C)(COC(C)=O)[C@@H]4CC[C@@]3(C)[C@]1(C)CC2)c1ccc2ccccc2c1 (stereo partly specified)
pIC50: < 4.00

## Input Look up and report pIC50, with HUVEC as system, for O=c1[nH]cc(F)c(=O)[nH]1
## Output 4.25

## Input Look up and report pIC50, with HUVEC as system, for C[C@H]1[C@H](C)CC[C@]2(C(=O)O)CC[C@]3(C)C(=CC[C@@H]4[C@@]5(C)C[C@@H](O)[C@H](O)[C@@](C)(CO)[C@@H]5CC[C@]43C)[C@H]12
## Output < 4.00

## Input Look up and report pIC50, with HUVEC as system, for CCOP(=O)(OCC)C(NC(=O)[C@]12CC[C@@H](C)[C@H](C)[C@H]1C1=CC[C@@H]3[C@@]4(C)C[C@@H](OC(C)=O)[C@H](OC(C)=O)[C@@](C)(COC(C)=O)[C@@H]4CC[C@@]3(C)[C@]1(C)CC2)c1ccccc1Cl (stereo partly specified)
## Output < 4.00

## Input Look up and report pIC50, with HUVEC as system, for CCOP(=O)(OCC)C(NC(=O)[C@]12CC[C@@H](C)[C@H](C)[C@H]1C1=CC[C@@H]3[C@@]4(C)C[C@@H](OC(C)=O)[C@H](OC(C)=O)[C@@](C)(COC(C)=O)[C@@H]4CC[C@@]3(C)[C@]1(C)CC2)c1ccc(Cl)cc1 (stereo partly specified)
## Output < 4.00

====

Test system: EA.hy 926
MEASUREMENT_DESCRIPTION: Cytotoxicity in human EAhy926 cells assessed as reduction in cell viability incubated for 72 hrs by MTT assay
Type: cell-based
TEST_PARAMETERS: EA.hy 926, 72 h
Checkbox rule: IC50 lower than 30 µM = 1.0; IC50 not lower than 30 µM = 0.0.

## Input A record lists Cc1ccc(/C=C/C(=O)O[C@H]2CC[C@]3(C)[C@H]4C(=O)C=C5[C@H]6C[C@@](C)(C(=O)O)CC[C@]6(C)CC[C@@]5(C)[C@]4(C)CC[C@H]3C2(C)C)cc1 . Is its IC50 below 30 µM?
## Output 1.0

## Input A record lists COc1ccc(OC)c(/C=C/C(=O)O[C@H]2CC[C@]3(C)[C@H]4C(=O)C=C5[C@H]6C[C@@](C)(C(=O)O)CC[C@]6(C)CC[C@@]5(C)[C@]4(C)CC[C@H]3C2(C)C)c1 . Is its IC50 below 30 µM?
## Output 0.0

## Input A record lists COc1cccc(/C=C/C(=O)O[C@H]2CC[C@]3(C)[C@H]4C(=O)C=C5[C@H]6C[C@@](C)(C(=O)O)CC[C@]6(C)CC[C@@]5(C)[C@]4(C)CC[C@H]3C2(C)C)c1 . Is its IC50 below 30 µM?
## Output 0.0

## Input A record lists COc1ccc(/C=C/C(=O)O[C@H]2CC[C@]3(C)[C@H]4C(=O)C=C5[C@H]6C[C@@](C)(C(=O)O)CC[C@]6(C)CC[C@@]5(C)[C@]4(C)CC[C@H]3C2(C)C)c(OC)c1OC . Is its IC50 below 30 µM?
## Output 1.0

These entries and their values trace back to ChEMBL document CHEMBL4270495.
